assay: in vitro; conditions: mouse, microsomes
Think of 100 µL/min/mg as a floor: if microsomal CLint stands on it or above, it is Condition met; beneath it, Condition not met.

See these solved cases before continuing.
Compound: Cc1nc(Nc2ncc(C(=O)Nc3c(CF)csc3Cl)s2)cc(N2CCCN(C)CC2)n1 [Compound E11]
Discrete Label: Condition not met
--
Compound: Cc1nc(Nc2ncc(C(=O)Nc3c(C(F)F)csc3Cl)s2)cc(N2CCN(CCO)CC2)n1 [Compound E4]
Discrete Label: Condition not met
--
Compound: Cc1nc(Nc2ncc(C(=O)Nc3c(CF)csc3Cl)s2)cc(N2CCN(CCO)CC2)n1 [Compound E3]
Discrete Label: Condition not met
--
Compound: Cc1nc(Nc2ncc(C(=O)Nc3c(C)csc3Cl)s2)cc(N2CCN(CCO)CC2)n1 [Compound C7]
Discrete Label: Condition met

Ask: Hi team, for Cc1nc(Nc2ncc(C(=O)Nc3c(CF)csc3Cl)s2)cc(N2CCN(C)CC2)n1 [Compound E9] , is the recorded microsomal CLint at or above 100 µL/min/mg?
Reply: Condition met

---

conditions: male, CD1, mouse, in vivo, po, 30 mg/kg
Experimental Readout: % AUCextrap, Free (%)
Your answer is read as %, so omit the unit and give the number.

Known results for molecules:
Molecule: Cc1nc(Nc2ncc(C(=O)Nc3c(CF)csc3Cl)s2)cc(N2CCN(C)CC2)n1
% AUCextrap, Free (%): 0.49
--
Molecule: Cc1nc(Nc2ncc(C(=O)Nc3c(C(F)F)csc3Cl)s2)cc(N2CCN(CCO)CC2)n1
% AUCextrap, Free (%): 0.31
--
Molecule: Cc1nc(Nc2ncc(C(=O)Nc3c(CF)csc3Cl)s2)cc(N2CCN(C)C(C)C2)n1 (racemic)
% AUCextrap, Free (%): 4.05

Here's the next entry for you.
Ask: State its % AUCextrap, Free: Cc1nc(Nc2ncc(C(=O)Nc3c(C)csc3Cl)s2)cc(N2CCN(CCO)CC2)n1
Reply: 11.24

---

experiment: Human hepatocyte stability; format: in vitro ADME; details: human, hepatocytes; read-out: Human hepatocyte stability, Half-life
Experimental Readout: half-life

Molecule: Cc1nc(Nc2ncc(C(=O)Nc3c(CF)csc3Cl)s2)cc(N2CCN(C)C(C)C2)n1 (racemic) [Compound E10]
Observed Value: 21 to 30 min

Molecule: Cc1nc(Nc2ncc(C(=O)Nc3c(CF)csc3Cl)s2)cc(N2CCN(C)CC2)n1 [Compound E9]
Observed Value: 21 to 30 min

Molecule: Cc1nc(Nc2ncc(C(=O)Nc3c(CF)csc3Cl)s2)cc(N2CCN(CCO)CC2)n1 [Compound E3]
Observed Value: 34 min

Molecule: Cc1nc(Nc2ncc(C(=O)Nc3c(C(F)F)csc3Cl)s2)cc(N2CCN(CCO)CC2)n1 [Compound E4]
Observed Value: 64 min

Ask: State its half-life: Cc1nc(Nc2ncc(C(=O)Nc3c(CF)csc3Cl)s2)cc(N2CCCN(C)CC2)n1 [Compound E11]
Reply: 26 min

Ask: State its half-life: Cc1nc(Nc2ncc(C(=O)Nc3c(C)csc3Cl)s2)cc(N2CCN(CCO)CC2)n1 [Compound C7]
Reply: 54 min

---

test: in vitro; details: human, microsomes
Experimental Readout: half-life (min)
Your answer is read as min, so omit the unit and give the number.

Known results for compounds:
Structure: Cc1nc(Nc2ncc(C(=O)Nc3c(Cl)ccnc3C)s2)cc(N2CCN(CCO)CC2)n1
half-life / min: 58

Structure: Cc1nc(Nc2ncc(C(=O)Nc3c(CF)csc3Cl)s2)cc(N2CCCN(C)CC2)n1
half-life / min: 19

Structure: Cc1nc(Nc2ncc(C(=O)Nc3c(C(F)F)csc3Cl)s2)cc(N2CCN(CCO)CC2)n1
half-life / min: 22

Structure: Cc1nc(Nc2ncc(C(=O)Nc3c(C)cncc3Cl)s2)cc(N2CCN(CCO)CC2)n1
half-life / min: 12

Ask: State its half-life: Cc1nc(Nc2ncc(C(=O)Nc3c(C)csc3Cl)s2)cc(N2CCN(CCO)CC2)n1
Reply: 10

Numbers sourced from patent US20230348453A1.
